KD Steady State for assorted binders
- MEASURED TARGET: T1, HSP70 (human HSP70; the antigen of the binning, humanization and variant binding assays) (human, UniProt P0DMV8 1-641, limits assumed)
- T1 construct: also called hu HSP70
- T1 sequence (P0DMV8 whole entry, change not shown): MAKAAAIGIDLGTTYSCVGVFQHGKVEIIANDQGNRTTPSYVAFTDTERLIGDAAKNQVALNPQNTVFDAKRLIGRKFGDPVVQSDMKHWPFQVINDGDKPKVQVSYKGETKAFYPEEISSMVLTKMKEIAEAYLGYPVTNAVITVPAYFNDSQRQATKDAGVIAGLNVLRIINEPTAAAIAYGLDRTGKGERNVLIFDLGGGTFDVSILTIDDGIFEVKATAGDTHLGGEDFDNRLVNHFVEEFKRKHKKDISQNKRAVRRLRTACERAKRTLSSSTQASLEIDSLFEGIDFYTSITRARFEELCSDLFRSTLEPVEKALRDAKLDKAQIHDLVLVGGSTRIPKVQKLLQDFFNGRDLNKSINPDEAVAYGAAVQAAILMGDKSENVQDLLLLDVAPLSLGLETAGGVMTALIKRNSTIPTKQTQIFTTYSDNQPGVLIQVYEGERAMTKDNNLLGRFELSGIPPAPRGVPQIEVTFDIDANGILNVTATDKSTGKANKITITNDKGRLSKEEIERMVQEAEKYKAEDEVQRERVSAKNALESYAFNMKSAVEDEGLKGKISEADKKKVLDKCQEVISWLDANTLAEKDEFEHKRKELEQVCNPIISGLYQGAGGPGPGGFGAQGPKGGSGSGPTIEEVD
- PROTOCOL SUMMARY: BLI, anti-human Fc capture, steady state
Number in nM, nothing else.

BINDER	KD Steady State, nM
h77A-1.1 (antibody, V domains shown, captured by anti-human Fc) VH: QIQLVQSGAEVKKPGASVKVSCKASGYTFTKYGMNWVRQAPGQGLEWMGWINTYTGEPTYADDFKGRFTFTTDTSTSTAYMELRSLRSDDTAVYFCARYDHAMDYWGQGTLVTVSS VL: EIVLTQSPDSLAVSLGERATINCKSSQSLLNSGTRKNYLAWYQQKAGQSPKLLIYWTSTRESGVPDRFSGSGSGTDFTLTIDSLQAEDVAVYYCKQSYTLYTFGGGTKVEIK	0.032

Specify KD Steady State for h77A-1 (antibody, V domains shown, also called hVH-1 + hVL-1) VH: QIQLVQSGAEVKKPGASVKVSCKASGYTFTNYGMNWVRQAPGQGLEWMGWINTYTGEPTYADDFKGRFTFTTDTSTSTAYMELRSLRSDDTAVYFCARYDHAMDYWGQGTLVTVSS VL: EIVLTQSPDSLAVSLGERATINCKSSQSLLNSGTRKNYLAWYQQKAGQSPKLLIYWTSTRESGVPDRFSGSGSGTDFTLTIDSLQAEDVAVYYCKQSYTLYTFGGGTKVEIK and stop.
1.2
